For each of the compounds below, state its relative viability.
system: LU99A; experiment: relative viability (nuclei count vs DMSO), 5 days (fraction); higher = more cells survive; details: first compound 2.53 µM

Q) Please give the measured relative viability for this compound: CCCCCCCCCCCC1=C(O)C(=O)C=C(O)C1=O [Embelin] + CC(C)C[C@H](NC(=O)[C@H](Cc1ccccc1)NC(=O)c1cnccn1)B(O)O [Bortezomib] (partner 0.002 µM)
A) 1.1

Q) Now give it for CCCCCCCCCCCC1=C(O)C(=O)C=C(O)C1=O [Embelin] + COc1cc2c(Oc3ccc(NC(=O)C4(C(=O)Nc5ccc(F)cc5)CC4)cc3F)ccnc2cc1OCCCN1CCOCC1 [Foretinib] (partner 0.25 µM) too.
A) 0.864

Q) Again, but for CCCCCCCCCCCC1=C(O)C(=O)C=C(O)C1=O [Embelin] + CC(=O)c1c(C)c2cnc(Nc3ccc(N4CCNCC4)cn3)nc2n(C2CCCC2)c1=O [Palbociclib] (partner 0.5 µM)
A) 0.394

Q) Next entry: CCCCCCCCCCCC1=C(O)C(=O)C=C(O)C1=O [Embelin] + Cc1cc(Nc2cc(N3CCN(C)CC3)nc(Sc3ccc(NC(=O)C4CC4)cc3)n2)n[nH]1 [Tozasertib] (partner 0.1 µM)
A) 0.277

Q) Next up: CCCCCCCCCCCC1=C(O)C(=O)C=C(O)C1=O [Embelin] + Nc1nc2[nH]cc(CCc3ccc(C(=O)N[C@@H](CCC(=O)O)C(=O)O)cc3)c2c(=O)[nH]1 [Pemetrexed] (partner 0.2 µM)
A) 0.15

Q) Note, next up: CCCCCCCCCCCC1=C(O)C(=O)C=C(O)C1=O [Embelin] + Nc1ncn([C@H]2C[C@H](O)[C@@H](CO)O2)c(=O)n1 [Decitabine] (partner 2 µM)
A) 0.942

###

Field: relative viability. Provide a value for each of the compounds that follow.
test system: NCI-H1734; assay: relative viability (nuclei count vs DMSO), 5 days (fraction); higher = more cells survive; conditions: first compound 0.01 µM
// return just the number, without any unit appended

Q) Need relative viability, item CC(C)Oc1cc(Nc2nc(N[C@@H](C)c3ccc(F)cn3)ncc2Cl)n[nH]1 [AZ23] + C[C@]1(O)C[C@@H](c2nc(-c3ccc4ccc(-c5ccccc5)nc4c3)c3c(N)nccn32)C1 [Linsitinib] (partner 1 µM)
A) 0.921

Q) Also, CC(C)Oc1cc(Nc2nc(N[C@@H](C)c3ccc(F)cn3)ncc2Cl)n[nH]1 [AZ23] + CC(=O)Nc1cccc(-n2c(=O)n(C3CC3)c(=O)c3c(Nc4ccc(I)cc4F)n(C)c(=O)c(C)c32)c1 [Trametinib] (partner 0.02 µM) please.
A) 0.733

Q) Next up: CC(C)Oc1cc(Nc2nc(N[C@@H](C)c3ccc(F)cn3)ncc2Cl)n[nH]1 [AZ23] + N=C(N)NC(=N)NCCc1ccccc1 [Phenformin] (partner 250 µM)
A) 0.335

Q) And the next one, CC(C)Oc1cc(Nc2nc(N[C@@H](C)c3ccc(F)cn3)ncc2Cl)n[nH]1 [AZ23] + Cc1nc(NC(=O)N2CCC[C@H]2C(N)=O)sc1-c1ccnc(C(C)(C)C(F)(F)F)c1 [Alpelisib] (partner 2 µM) ?
A) 0.683

###

test system: LXF-289; test: relative viability (nuclei count vs DMSO), 5 days (fraction); higher = more cells survive; details: first compound 0.4 µM
For each record, write down the corresponding relative viability.

Q) What does the data say about its relative viability? Entry: COc1cc(N2CCC(C(N)=O)CC2)ccc1Nc1nc(N)c(Cl)c(Nc2ccccc2S(=O)(=O)C(C)C)n1 [HG-5-88-01] + COc1cccc2cc(-c3nc([C@H]4CC[C@H](C(=O)O)CC4)n4ncnc(N)c34)[nH]c12 [OSI-027] (partner 0.5 µM)
A) 0.77

Q) Query C[C@@H]1CN(CC(=O)Nc2ccc3c(c2)Cc2cccc(-c4cc(=O)cc(N5CCOCC5)o4)c2S3)C[C@H](C)O1 + Cc1cc(Nc2cc(N3CCN(C)CC3)nc(Sc3ccc(NC(=O)C4CC4)cc3)n2)n[nH]1 [Tozasertib] (partner 0.1 µM) next
A) 0.246

Q) Next record, please: Clc1ccc(Nc2nnc(Cc3ccncc3)c3ccccc23)cc1 [Vatalanib] + CS(=O)(=O)N1CCN(Cc2cc3nc(-c4cccc5[nH]ncc45)nc(N4CCOCC4)c3s2)CC1 [Pictilisib] (partner 1 µM)
A) 0.748

Q) Would you kindly repeat that for COc1cc(N2CCC(C(N)=O)CC2)ccc1Nc1nc(N)c(Cl)c(Nc2ccccc2S(=O)(=O)C(C)C)n1 [HG-5-88-01] + CCNC(=O)c1noc(-c2cc(C(C)C)c(O)cc2O)c1-c1ccc(CN2CCOCC2)cc1 [Luminespib] (partner 0.01 µM) ?
A) 0.698

Q) Do the same for Clc1ccc(Nc2nnc(Cc3ccncc3)c3ccccc23)cc1 [Vatalanib] + CC1(C)CCC(c2ccc(Cl)cc2)=C(CN2CCN(c3ccc(C(=O)NS(=O)(=O)c4ccc(N[C@H](CCN5CCOCC5)CSc5ccccc5)c(S(=O)(=O)C(F)(F)F)c4)cc3)CC2)C1 [Navitoclax] (partner 0.5 µM) please
A) 0.989

Q) Another compound to check: C[C@@H]1CN(CC(=O)Nc2ccc3c(c2)Cc2cccc(-c4cc(=O)cc(N5CCOCC5)o4)c2S3)C[C@H](C)O1 + COc1cc2c(Oc3ccc(NC(=O)C4(C(=O)Nc5ccc(F)cc5)CC4)cc3F)ccnc2cc1OCCCN1CCOCC1 [Foretinib] (partner 0.25 µM)
A) 0.985

Q) And then COc1cc(N2CCC(C(N)=O)CC2)ccc1Nc1nc(N)c(Cl)c(Nc2ccccc2S(=O)(=O)C(C)C)n1 [HG-5-88-01] + Cc1nc(Nc2ncc(C(=O)Nc3c(C)cccc3Cl)s2)cc(N2CCN(CCO)CC2)n1 [Dasatinib] (partner 0.075 µM) , what is it?
A) 0.116

Q) # repeat for COc1cc(N2CCC(C(N)=O)CC2)ccc1Nc1nc(N)c(Cl)c(Nc2ccccc2S(=O)(=O)C(C)C)n1 [HG-5-88-01] + O=C(CCCCCCC(=O)Nc1ccccc1)NO [Vorinostat] (partner 1 µM)
A) 0.826

Data provenance: the supplement of paper PMC10307832
